# assay.target: Albumin (Bos taurus) (UniProt P02769)
# Sequence (P02769 whole entry, looked up): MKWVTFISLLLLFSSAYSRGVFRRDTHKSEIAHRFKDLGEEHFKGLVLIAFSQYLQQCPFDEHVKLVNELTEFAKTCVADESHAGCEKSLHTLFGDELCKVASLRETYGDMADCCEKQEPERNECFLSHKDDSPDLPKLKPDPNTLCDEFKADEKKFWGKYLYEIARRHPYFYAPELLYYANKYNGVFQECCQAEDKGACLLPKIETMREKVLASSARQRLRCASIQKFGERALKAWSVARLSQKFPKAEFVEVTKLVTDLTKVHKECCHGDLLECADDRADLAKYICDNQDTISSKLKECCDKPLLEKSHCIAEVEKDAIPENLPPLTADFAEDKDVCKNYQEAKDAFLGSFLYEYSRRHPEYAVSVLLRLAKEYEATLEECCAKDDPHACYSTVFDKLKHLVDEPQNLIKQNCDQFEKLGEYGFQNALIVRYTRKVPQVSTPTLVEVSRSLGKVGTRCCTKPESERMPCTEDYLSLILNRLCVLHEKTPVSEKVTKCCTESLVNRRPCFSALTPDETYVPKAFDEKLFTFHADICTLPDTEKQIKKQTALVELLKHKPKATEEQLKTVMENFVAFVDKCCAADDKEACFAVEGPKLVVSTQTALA
# assay.explanation: compounds binding labelled BSA control protein – biochemical, small-molecule microarray, Alexa647 label, 635/667 nm fluorescence, artefact control for SMM control protein annotation, profiling panel (AID 1118);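 also: score merges 667 nm emission intensity and signal-to-noise per printed compound spot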
# assay.context: BSA-A647 binding, fluorescence 635 nm, higher = more signal
property.label: composite z-score
Format: numeric value only, no unit, no commentary.

Some compounds with known composite z-score results, for comparison:
>  <smiles.input>
C=C[C@H](C)[C@H](OC(=O)Nc1ccc(SC)cc1)c1ccc(OCCO)cc1

>  <result.value>
0.548

$$$$
>  <smiles.input>
O=C1O[C@H](c2ccccc2)[C@H](c2ccccc2)N2[C@H]1[C@@H](C(=O)O)[C@]1(C(=O)Nc3ccc(C#CCCO)cc31)[C@H]2c1ccccc1OCCO

>  <result.value>
0.713

$$$$
>  <smiles.input>
CCCCC=C[C@@H](NC(=O)OCc1ccccc1Cl)c1ccccc1

>  <result.value>
0.997

$$$$
>  <smiles.input>
COc1cccc(C)c1NC(=O)O[C@H]1[C@H](OC(=O)Nc2ccc3c(c2)OCO3)[C@@H](OC(=O)Nc2ccc3c(c2)OCO3)[C@@H](OC)O[C@@H]1CO

>  <result.value>
0.48

$$$$

Exercise: # get_value(readout='composite z-score', item= `COCCOC(=O)N1C(=O)[C@@]2(c3cc(C#CCCO)ccc31)[C@H](c1ccc(OCCO)cc1)N1[C@H](c3ccccc3)[C@H](c3ccccc3)OC(=O)[C@H]1[C@@H]2C(=O)Nc1nc2ccccc2s1` )
Solution: 0.648

Exercise: # get_value(readout='composite z-score', item= `COCCOC(=O)N1C(=O)[C@@]2(c3cc(C#CC4(O)CCCCCC4)ccc31)[C@H](C(=O)N1CCc3cc(OC)c(OC)cc3C1)[C@H]1C(=O)O[C@H](c3ccccc3)[C@H](c3ccccc3)N1[C@@H]2c1ccc(OCCO)cc1` )
Solution: 0.121

Exercise: # get_value(readout='composite z-score', item= `C#Cc1cc2ccccc2oc1=O` )
Solution: 0.683
